Compiled record: IC50 values for Epidermal growth factor receptor (Homo sapiens, UniProt P00533) across several sources.
Please give a number only; it is taken to be in µM.

Reference set (6 entries):
structure_as_smiles=CN1CCN(Cc2ccc3[nH]/c(=N\C(=O)c4cc(F)nc(Oc5cccc(O)c5C=O)c4)n(CC(C)(C)O)c3c2)CC1 assay_value=0.00829
structure_as_smiles=CN1CCN(Cc2ccc3[nH]/c(=N\C(=O)c4cncc(Oc5cccc(O)c5C=O)n4)n(CC(C)(C)O)c3c2)CC1 assay_value=0.081
structure_as_smiles=CCc1cc(Nc2ncc(Cl)c(Nc3ccc(-c4cnc(OC)nc4)cc3P(C)(C)=O)n2)c(OC)cc1N1CCC(N2CCN(C)CC2)CC1 assay_value=0.0376
structure_as_smiles=COc1cc(/C=C2\CCC/C(=C\c3ccc(O)cc3)C2=O)cc(OC)c1 assay_value=4.66
structure_as_smiles=Cc1nn(CC(C)(C)O)c2c1/C=C/c1n[nH]c3ccc(cc13)-c1cnn(C)c1OCCCO2 assay_value=1.3
structure_as_smiles=COc1cc(Nc2ncc(Br)c(Nc3ccc4nc(C5CC5)ccc4c3P(C)(C)=O)n2)c(C)cc1N1CCOCC1 assay_value=0.0517

Give the reported value of IC50 for this record: CN(C)C/C=C/C(=O)N1CCC[C@H]1Cn1nc(-c2ccc(Oc3ccccc3)cc2)c2c(N)ncnc21
0.698
